Where do these numbers come from? They come from the supplement of paper PMC12783771.

B1: library; numbered along this chain (parent)
chain: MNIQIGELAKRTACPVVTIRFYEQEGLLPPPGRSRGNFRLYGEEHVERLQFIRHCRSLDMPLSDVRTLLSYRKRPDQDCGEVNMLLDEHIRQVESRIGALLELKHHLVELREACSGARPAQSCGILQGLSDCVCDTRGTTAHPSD

variants of: B1; experiment: sfGFP reporter fluorescence (15 h) (µM FITC); higher = stronger transcriptional activation; details: library round: Round 0; ligand: 1 µM Pb

# mutation.id, sfGFP reporter fluorescence
records = [
    ("I125M", 0.0579),
    ("M60S", 0.0608),
    ("L110D", 0.0586),
    ("Q92A", 0.063),
    ("C123T", 0.0572),
    ("P30N", 0.0753),
    ("Y41M", 0.0596),
    ("C123P", 0.0577),
    ("K10A", 0.0687),
    ("C123K", 0.0597),
    ("L58Y", 0.229),
    ("E7S", 0.087),
    ("E112F", 0.0647),
    ("I97S", 0.0722),
    ("P143N", 0.0718),
    ("H89W", 0.0585),
    ("E112D", 0.0722),
    ("E109Y", 0.0832),
    ("I125A", 0.0553),
    ("P15T", 0.101),
    ("P143S", 0.0757),
    ("L62I", 0.0883),
    ("G6W", 0.0601),
    ("L68H", 0.0577),
    ("C79L", 0.0553),
    ("E43Y", 0.0924),
    ("Q24A", 0.0583),
    ("I90E", 0.0579),
    ("P30L", 0.0894),
    ("L107S", 0.545),
    ("I125R", 0.0603),
    ("Y22F", 0.0662),
    ("L69A", 0.0627),
    ("M60A", 0.0619),
    ("L126H", 0.0588),
    ("L129E", 0.0597),
    ("Y41I", 0.0572),
    ("M60C", 0.063),
    ("D64S", 0.22),
    ("C114N", 0.0579),
    ("P143D", 0.0733),
    ("C134Q", 0.0953),
    ("L62F", 0.0652),
    ("R111G", 0.0623),
    ("D135K", 0.085),
    ("L85G", 0.0541),
]
